Each recorded value in this set is attributed to the C3SDB collision cross section collection.

# CONDITION_LABEL: [M+Na]+; instrument: DT; single field, calibrated with ESI Low Concentration Tuning Mix (Agilent)
ENDPOINT_NAME: collision cross section (N2) (Å²)

CC(=O)N1CCC[C@H]1C(=O)O [N-ACETYLPROLINE]    140.3
O=P(O)(O)O[C@H]1O[C@H](CO)[C@H](O)[C@H](O)[C@H]1O [GALACTOSE 1-PHOSPHATE]    157.7
NC(=O)Cc1c[nH]c2ccccc12 [INDOLE-3-ACETAMIDE]    143.4
NC(CS(=O)(=O)O)C(=O)O (centres undefined) [CYSTEATE]    148.2
CC(=O)N[C@@H]1[C@@H](O)[C@@H](O)[C@@H](CO)O[C@@H]1O [N-ACETYLGALACTOSAMINE]    150.3

(I) N[C@@H](Cc1ccccc1)C(=O)O [PHENYLALANINE]
(II) Nc1ncnc2c1ncn2C1OC(COP(=O)(O)OP(=O)(O)OCC2OC(O)C(O)C2O)C(O)C1O (centres undefined) [ADENOSINE DIPHOSPHATE RIBOSE]
Task: Which one would you say has the larger collision cross section (N2) value: I , or II ? Which one? Tell me its label.
Output: II
